system: Rattus norvegicus; settings: acute; oral; gavage; Sprague-Dawley
# LD50 listing for each entry below

{"columns": ["COMPOUND", "LD50"],
 "data": [
  ["CCCCCCCCCCCCOC(=O)CS(=O)(=O)[O-].[Na+] [Sodium 2-(dodecyloxy)-2-oxoethane-1-sulphonate]", "> 2000 mg/kg"],
  ["CC(C)(C)c1cccc(C(C)(C)C)c1O", "> 5000 mg/kg"],
  ["CC(C)C(C)(N)C#N (centres undefined)", "83 mg/kg"]
]}

Attention now turns to another entry.
// query Under Rattus norvegicus, report LD50 for CCCCCCCCC(=O)OCC(CC)(COC(=O)CCCCCCCC)COC(=O)CCCCCCCC [Trimethylolpropane trinonanoate]
// result > 2000 mg/kg

---

system: Rattus norvegicus; settings: reproduction developmental; oral; diet; Sprague-Dawley; generation: F0
# NOAEL listing for each entry below
Your answer should be a plain number; it is taken to be in ppm.

{"columns": ["MOLECULE", "QUANTITY KIND", "ENDPOINT VALUE"],
 "data": [
  ["CCC(C)(CCC(C)C)C(=O)O (stereo unspecified)", "NOAEL", 1500],
  ["S=C(SN1CCOCC1)N1CCOCC1", "NOAEL", 600],
  ["O=C(Nc1ccc(Cl)cc1)Nc1ccc(Cl)c(Cl)c1", "NOAEL", 3000]
]}

Attention now turns to another entry.
// query Please give the documented NOAEL of "CC(C)(C)CC(C)(C)c1ccc(O)cc1"
// result 200

---

system: Rattus norvegicus; details: uterotrophic; duration: 3 days; injection; subcutaneous; Active
# LEL listing for each entry below
Your answer should be a plain number; it is taken to be in mg/kg-day.

Solved cases below.
{"columns": ["COMPOUND", "SYSTEM", "LEL [mg/kg-day]"],
 "data": [
  ["CCOC(=O)c1ccc(O)cc1", "Rattus norvegicus", 180],
  ["Cl.O=C(c1ccc(OCCN2CCCCC2)cc1)c1c(-c2ccc(O)cc2)sc2cc(O)ccc12 [Raloxifene hydrochloride]", "Rattus norvegicus", 0.5],
  ["CC1(C)C(C=C(Cl)Cl)C1C(=O)OCc1cccc(Oc2ccccc2)c1 (stereo not given)", "Rattus norvegicus", 800]
]}

Attention now turns to another entry.
// query Please give the documented LEL of "c1ccc2c(c1)-c1cccc3cccc-2c13"
// result 10

---

test system: Rattus norvegicus; conditions: acute; oral; gavage; Sprague-Dawley
QUANTITY KIND: LD50 (mg/kg)
Your answer should be a plain number; it is taken to be in mg/kg.

{"columns": ["COMPOUND", "ENDPOINT VALUE"],
 "data": [
  ["O=P(OC(CCl)CCl)(OC(CCl)CCl)OC(CCl)CCl [Tris(1,3-dichloro-2-propyl) phosphate]", 3160]
]}

Attention now turns to another entry.
// query Please give the documented LD50 of CCCCCCCCCCc1cc(Oc2ccc(S(=O)(=O)O)cc2)ccc1S(=O)(=O)O [Decyl(sulfophenoxy)benzenesulfonic acid]
// result 3010

---

test system: Oryctolagus sp.; conditions: acute; dermal
QUANTITY KIND: LD50

Solved cases below.
{"columns": ["MOLECULE", "SYSTEM", "ENDPOINT VALUE"],
 "data": [
  ["CC(C)(C)CC(C)(C)c1ccc(O)cc1", "Oryctolagus sp.", "> 2000 mg/kg"],
  ["Nc1ccc(Cc2ccc(N)c(Cl)c2)cc1Cl", "Oryctolagus sp.", "> 5000 mg/kg"]
]}

Attention now turns to another entry.
// query Please give the documented LD50 of [Na+].[S-]c1nc2ccccc2s1 [Sodium 2-mercaptobenzothiolate]
// result > 7940 mg/kg
